Data credit: ChEMBL document CHEMBL2384950

// reported Ki for each item listed
# SYSTEM_NAME: Transient receptor potential cation channel subfamily V member 1 (Homo sapiens)
# ASSAY_SUMMARY: Antagonist activity at human TRPV1 expressed in CHOK1 cells assessed as inhibition of capsaicin-induced activity by FLIPR assay
# Type: cell-based, CHO-K1
// return numeric value only (unit: nM, not printed)

COMPOUND | SYSTEM_NAME | MEASUREMENT_TYPE | UNIT_ABBREV | OBSERVED_RESULT
CC(C(=O)NCc1ccc(C(C)(C)C)cc1)c1ccc(NS(C)(=O)=O)c(F)c1 (centres undefined) | Transient receptor potential cation channel subfamily V member 1 (Homo sapiens) | Ki | nM | 44.5
CC(C(=O)NCc1ccc(C(F)(F)F)nc1OCc1cc(Cl)cc(Cl)c1)c1ccc(NS(C)(=O)=O)c(F)c1 (centres undefined) | Transient receptor potential cation channel subfamily V member 1 (Homo sapiens) | Ki | nM | 2.6
COCCOc1nc(C(F)(F)F)ccc1CNC(=O)C(C)c1ccc(NS(C)(=O)=O)c(F)c1 (centres undefined) | Transient receptor potential cation channel subfamily V member 1 (Homo sapiens) | Ki | nM | 49

Kindly consider the entry below.
Form field Ki, entry CC(C(=O)NCc1ccc(C(F)(F)F)nc1OCc1cccc(Cl)c1)c1ccc(NS(C)(=O)=O)c(F)c1 (centres undefined) : 4.9

----------
# SYSTEM_NAME: Transient receptor potential cation channel subfamily V member 1 (Homo sapiens, UniProt Q8NER1)
# Sequence (Q8NER1 whole entry): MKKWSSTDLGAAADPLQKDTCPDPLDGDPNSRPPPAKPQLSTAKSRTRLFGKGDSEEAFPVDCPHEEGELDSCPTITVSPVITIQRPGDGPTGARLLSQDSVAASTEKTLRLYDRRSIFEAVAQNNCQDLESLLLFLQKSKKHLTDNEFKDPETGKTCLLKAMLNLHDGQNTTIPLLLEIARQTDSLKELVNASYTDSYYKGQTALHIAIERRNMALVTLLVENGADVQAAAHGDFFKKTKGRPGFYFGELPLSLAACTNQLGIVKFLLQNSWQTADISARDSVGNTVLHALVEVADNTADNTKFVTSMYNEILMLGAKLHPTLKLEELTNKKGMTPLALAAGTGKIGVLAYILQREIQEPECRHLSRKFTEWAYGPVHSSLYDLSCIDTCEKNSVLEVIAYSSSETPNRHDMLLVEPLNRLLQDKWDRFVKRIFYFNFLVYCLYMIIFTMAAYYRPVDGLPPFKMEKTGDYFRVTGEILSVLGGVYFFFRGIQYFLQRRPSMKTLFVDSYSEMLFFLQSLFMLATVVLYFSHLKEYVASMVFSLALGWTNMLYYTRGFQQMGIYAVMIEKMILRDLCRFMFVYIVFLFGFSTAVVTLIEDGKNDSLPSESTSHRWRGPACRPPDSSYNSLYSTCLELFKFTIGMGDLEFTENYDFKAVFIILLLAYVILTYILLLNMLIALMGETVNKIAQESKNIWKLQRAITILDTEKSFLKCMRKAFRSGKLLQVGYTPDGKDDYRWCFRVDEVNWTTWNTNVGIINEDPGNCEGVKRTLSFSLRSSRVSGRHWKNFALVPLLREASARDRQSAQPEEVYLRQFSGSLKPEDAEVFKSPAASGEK
# ASSAY_SUMMARY: Antagonist activity at human TRPV1 expressed in CHOK1 cells assessed as inhibition of N-arachidonoyldopamine-induced activity after 5 mins by FLIPR assay
# Type: cell-based, CHO-K1
MEASUREMENT_TYPE: pKi
Please treat pKi as minus the base-10 logarithm of the molar concentration.

In the examples that follow, each entry is paired with its recorded pKi.
COMPOUND | MEASUREMENT_TYPE | OBSERVED_RESULT
CC(C)COc1nc(C(F)(F)F)ccc1CNC(=O)C(C)c1ccc(NS(C)(=O)=O)c(F)c1 (stereo not drawn) | pKi | 9.54
CC1CCN(c2nc(C(F)(F)F)ccc2CNC(=O)C(C)c2ccc(NS(C)(=O)=O)c(F)c2)CC1 (stereo not drawn) | pKi | 9.64

Could you now consider this next compound?
Sure, the documented pKi for CC(C(=O)NCc1ccc(C(F)(F)F)nc1OCc1ccccc1)c1ccc(NS(C)(=O)=O)c(F)c1 (stereo not drawn) is 12.00

----------
# SYSTEM_NAME: Transient receptor potential cation channel subfamily V member 1 (Homo sapiens)
# ASSAY_SUMMARY: Antagonist activity at human TRPV1 expressed in CHOK1 cells assessed as inhibition of pH 6 to 6.3-induced activity by FLIPR assay
# Format: cell-based, CHO-K1
Entries and their measured pIC50 follow.
The read-out pIC50 is expressed as -log10 of concentration in moles per litre.

Summary for this compound, CC(C(=O)NCc1ccc(C(F)(F)F)nc1OCc1cccc(F)c1)c1ccc(NS(C)(=O)=O)c(F)c1 (centres undefined) : pIC50 is 7.16

The reported value for CC1CC(C)CC(Oc2nc(C(F)(F)F)ccc2CNC(=O)C(C)c2ccc(NS(C)(=O)=O)c(F)c2)C1 (centres undefined) in terms of pIC50 is 6.76

So for CC(C(=O)NCc1ccc(C(F)(F)F)nc1OCCC1CCCCN1C(=O)OC(C)(C)C)c1ccc(NS(C)(=O)=O)c(F)c1 (centres undefined) , the logged pIC50 turned out to be 7.78

Lookup result for CC(C(=O)NCc1ccc(C(F)(F)F)nc1OCc1cc(F)cc(F)c1)c1ccc(NS(C)(=O)=O)c(F)c1 (centres undefined) ; measured pIC50: 7.03

----------
# SYSTEM_NAME: Transient receptor potential cation channel subfamily V member 1 (Homo sapiens, UniProt Q8NER1)
# ASSAY_SUMMARY: Antagonist activity at human TRPV1 expressed in CHOK1 cells assessed as inhibition of heat 45 degC-induced activity after 5 mins by FLIPR assay
# Type: cell-based, CHO-K1
MEASUREMENT_TYPE: IC50 (µM)
# number only, unit µM dropped from output

Answered cases to consult:
COMPOUND | IC50 / µM
CC(C(=O)NCc1ccc(C(F)(F)F)nc1OCc1ccccc1)c1ccc(NS(C)(=O)=O)c(F)c1 (stereo not drawn) | 0.0523
CC1CCN(c2nc(C(F)(F)F)ccc2CNC(=O)C(C)c2ccc(NS(C)(=O)=O)c(F)c2)CC1 (stereo not drawn) | 0.0045

Could you now consider this next compound?
Noted for CC(C)COc1nc(C(F)(F)F)ccc1CNC(=O)C(C)c1ccc(NS(C)(=O)=O)c(F)c1 (stereo not drawn) : its IC50 reads 0.0675

----------
log10 Ki: recorded values
# SYSTEM_NAME: UniProt:Q8NER1
# ASSAY_SUMMARY: Antagonist activity at human TRPV1 expressed in CHOK1 cells assessed as inhibition of capsaicin-induced activity by FLIPR assay
# Assay type: cell-based, CHO-K1
Transform log10 | Measure Ki | Unit nM

COMPOUND | MEASUREMENT_TYPE | OBSERVED_RESULT
CC(C(=O)NCc1ccc(C(F)(F)F)nc1OCc1cc(F)cc(F)c1)c1ccc(NS(C)(=O)=O)c(F)c1 (stereo not drawn) | log10 Ki | 0.00

Turning to the following compound.
# log10 Ki of CCCCC(CCC)Oc1nc(C(F)(F)F)ccc1CNC(=O)C(C)c1ccc(NS(C)(=O)=O)c(F)c1 (stereo not drawn) = -0.30

----------
Entries and their pIC50
# SYSTEM_NAME: UniProt:Q8NER1
# ASSAY_SUMMARY: Antagonist activity at human TRPV1 expressed in CHOK1 cells assessed as inhibition of pH 6 to 6.3-induced activity by FLIPR assay
# Format: cell-based, CHO-K1
FYI, pIC50 means -log10 of a concentration in mol per litre.

Sample answers from the record:
COMPOUND | SYSTEM_NAME | pIC50
CC(C(=O)NCc1ccc(C(F)(F)F)nc1OC[C@@H]1C[C@H]1C)c1ccc(NS(C)(=O)=O)c(F)c1 (some centres undefined) | UniProt:Q8NER1 | 8.29
CC(C(=O)NCc1ccc(C(F)(F)F)nc1OCCc1ccccc1)c1ccc(NS(C)(=O)=O)c(F)c1 (centres undefined) | UniProt:Q8NER1 | 7.56
CC(C(=O)NCc1ccc(C(F)(F)F)nc1OCc1cccc(Cl)c1)c1ccc(NS(C)(=O)=O)c(F)c1 (centres undefined) | UniProt:Q8NER1 | 7.02
CC(C(=O)NCc1ccc(C(F)(F)F)nc1OCc1cc(Cl)cc(Cl)c1)c1ccc(NS(C)(=O)=O)c(F)c1 (centres undefined) | UniProt:Q8NER1 | 6.94
COc1ccc(COc2nc(C(F)(F)F)ccc2CNC(=O)C(C)c2ccc(NS(C)(=O)=O)c(F)c2)cc1 (centres undefined) | UniProt:Q8NER1 | 6.19

Okay, next one:
// sample CC(C(=O)NCc1ccc(C(C)(C)C)cc1)c1ccc(NS(C)(=O)=O)c(F)c1 (centres undefined) , its pIC50 was 5.70

----------
# Lookup of reported log10 of Ki keyed by entry
# SYSTEM_NAME: Transient receptor potential cation channel subfamily V member 1 (Homo sapiens)
# ASSAY_SUMMARY: Antagonist activity at human TRPV1 expressed in CHOK1 cells assessed as inhibition of capsaicin-induced activity by FLIPR assay
# Assay type: cell-based, CHO-K1
Please keep in mind that the values are log10 of Ki expressed in nM.

A selection of reference data follows.
COMPOUND | log10 of Ki
COc1ccc(COc2nc(C(F)(F)F)ccc2CNC(=O)C(C)c2ccc(NS(C)(=O)=O)c(F)c2)cc1 (stereo unspecified) | 0.41
CC(C(=O)NCc1ccc(C(F)(F)F)nc1OCCc1ccccc1)c1ccc(NS(C)(=O)=O)c(F)c1 (stereo unspecified) | -0.30
CCOCCOc1nc(C(F)(F)F)ccc1CNC(=O)C(C)c1ccc(NS(C)(=O)=O)c(F)c1 (stereo unspecified) | 1.70
CC(C(=O)NCc1ccc(C(F)(F)F)nc1OCCC1CCCCN1C(=O)OC(C)(C)C)c1ccc(NS(C)(=O)=O)c(F)c1 (stereo unspecified) | -0.52
CC(C(=O)NCc1ccc(C(F)(F)F)nc1OC[C@@H]1C[C@H]1C)c1ccc(NS(C)(=O)=O)c(F)c1 (stereo partly specified) | -0.52

// next item, log10 of Ki requested
The measured log10 of Ki associated with CC(C(=O)NCc1ccc(C(F)(F)F)nc1OCc1cccc(F)c1)c1ccc(NS(C)(=O)=O)c(F)c1 (stereo unspecified) reads -0.10

----------
# SYSTEM_NAME: Transient receptor potential cation channel subfamily V member 1 (Homo sapiens, UniProt Q8NER1)
# ASSAY_SUMMARY: Antagonist activity at human TRPV1 expressed in CHOK1 cells assessed as inhibition of pH 6 to 6.3-induced activity by FLIPR assay
# Assay type: cell-based, CHO-K1
MEASUREMENT_TYPE: IC50

// IC50 value for CCC(CC)Oc1nc(C(F)(F)F)ccc1CNC(=O)C(C)c1ccc(NS(C)(=O)=O)c(F)c1 (stereo not drawn) : > 10 µM

Item: CC(C(=O)NCc1ccc(C(F)(F)F)nc1OCC1CCNCC1)c1ccc(NS(C)(=O)=O)c(F)c1 (stereo not drawn) | IC50: > 10 µM

GET /value?item= CC(C(=O)NCc1ccc(C(F)(F)F)nc1OC1CCNCC1)c1ccc(NS(C)(=O)=O)c(F)c1 (stereo not drawn) &field=IC50 returns > 10 µM
